Would you kindly list pIC50 for each of these molecules?
- STUDY TARGET: human recombinant COX2 (hCOX2) (UniProt P35354)
- EXPERIMENTAL DETAILS: LCMS-based COX2 enzymatic inhibition assay (PGE2 quantification)
- Type: biochemical
- Design: COX2 2 minutes pge2/pge2d4 area ratio Avg; other: 2 minutes; readout pge2/pge2d4 area ratio; average; COX2 2 minutes pge2/pge2d4 area ratio Avg; LLE; average LLE; COX2 2 minutes pge2 area (counts) Avg; readout pge2 area (counts); other: 2 min; "ovine COX2 (oCOX2), human recombinant COX2 (hCOX2)"
- EXPERIMENTAL PARAMETERS: 2 minutes; readout pge2 area (counts); average; read-out: COX2 2 minutes pge2 area (counts) Avg. IC50
// pIC50 is dimensionless: -log10 of concentration (M)

stdin: Consider the molecule shown here: `CS(=O)(=O)c1ccc(-c2cc(C(F)(F)F)nc(Oc3ccc(F)cc3)n2)cc1` What is its recorded pIC50?
stdout: 6.68

stdin: What does the record list as pIC50 for `Cc1ccc(COc2cncc(-c3ccc(S(C)(=O)=O)cc3)n2)s1` ?
stdout: 6.91

stdin: Tell me the measured pIC50 of `COc1ncc(NCc2ccccc2)nc1-c1ccc(S(C)(=O)=O)cc1` , please.
stdout: 7.68

stdin: Name the recorded pIC50 for `Cn1ccc(CNc2cncc(-c3ccc(S(C)(=O)=O)cc3)n2)n1` .
stdout: 5.48

stdin: Consider the molecule `CS(=O)(=O)c1ccc(-n2nnc3ccc(NCc4cccs4)nc32)cc1` and give its measured pIC50.
stdout: 6.66

stdin: Quick check: pIC50 of `CC(C)CNc1cncc(-c2ccc(S(C)(=O)=O)cc2)n1` ?
stdout: 6.22

stdin: I would be grateful if you could share the reported pIC50 for `CS(=O)(=O)c1ccc(-c2cncc(OCc3cccs3)c2)cc1` .
stdout: 5.63

stdin: # query: pIC50 of entry `CS(=O)(=O)c1ccc(-c2cnc3cnn(Cc4cccs4)c3n2)cc1`
stdout: 7.16

stdin: Field request: pIC50 | item: `NS(=O)(=O)c1ccc(-c2cncc(NCc3cccs3)n2)cc1`
stdout: 7.18

stdin: Sample `CS(=O)(=O)c1ccc(-n2ccc3ccc(Nc4ccccc4)nc32)cc1` — what was its pIC50?
stdout: 7.47

stdin: # pIC50 lookup, item `CS(=O)(=O)c1ccc(-c2cccc(C(=O)Cc3cccs3)n2)cc1`
stdout: 5.80

stdin: Which value of pIC50 has been reported for `CS(=O)(=O)c1ccc(-c2cncc(OCc3ccns3)n2)cc1` in the records?
stdout: 6.71

stdin: May I ask what pIC50 has been recorded for `CS(=O)(=O)c1ccc(-c2cc(NCc3ccoc3)ncn2)cc1` ?
stdout: 5.51

stdin: Report pIC50 for `NS(=O)(=O)c1ccc(-c2cncc(OCc3cccs3)n2)cc1` please.
stdout: 8.27

stdin: Please look up its pIC50: CS(=O)(=O)c1ccc(-c2cncc(SC[C@@H]3CCCO3)n2)cc1 (single isomer, unassigned)
stdout: 6.21

stdin: Fill in: pIC50 of `CS(=O)(=O)c1ccc(-c2ccc3ccn(Cc4ccco4)c3n2)cc1` is ___
stdout: 7.43

stdin: Please look up its pIC50: `CS(=O)(=O)c1ccc(-c2nc(NCc3cccs3)cnc2N)cc1`
stdout: 6.03

stdin: # pIC50 lookup, item `CS(=O)(=O)c1ccc(-c2cncc(/C=C\c3cccs3)n2)cc1`
stdout: 7.41

stdin: # get_value(readout='pIC50', item= `CS(=O)(=O)c1ccc(-c2nncc(NCc3cccs3)n2)cc1` )
stdout: 6.34

stdin: Please report the recorded pIC50 for C[S+]([O-])c1ccc(-c2cccc(OCc3cccs3)n2)cc1 (stereo not drawn) .
stdout: 6.37

stdin: Fill blank: measured pIC50 of the molecule `Cc1occc1CNc1cccc(-c2ccc(S(C)(=O)=O)cc2)n1` is ____.
stdout: 7.86

stdin: Recorded pIC50 of `CS(=O)(=O)c1ccc(-c2coc3ccc(NCc4ccco4)nc23)cc1` , please.
stdout: 7.39

stdin: # lookup: pIC50 of `CS(=O)(=O)c1ccc(-n2ccc3ccc(C(=O)c4cccs4)nc32)cc1`
stdout: 6.63

stdin: Name the reported pIC50 value associated with the molecule `CS(=O)(=O)c1ccc(-c2nc(NCc3cccs3)cnc2C(N)=O)cc1`
stdout: 5.46

stdin: Quick one: pIC50 for C[C@H](Oc1cncc(-c2ccc(S(C)(=O)=O)cc2)n1)c1cccs1 (single isomer, unassigned) ?
stdout: 7.56

stdin: Entry `CS(=O)(=O)c1ccc(-c2cccc(NCc3nccs3)n2)cc1` has what pIC50?
stdout: 6.98

stdin: If you can, please state the reported pIC50 value of `CS(=O)(=O)c1ccc(-c2ccc(F)c(NCc3ccco3)n2)cc1` .
stdout: 8.02

stdin: Which pIC50 is reported for this molecule? `COc1nc(NCc2cccs2)cc(-c2ccc(S(C)(=O)=O)cc2)n1`
stdout: 6.49

stdin: Quick check: pIC50 of `CS(=O)(=O)c1ccc(-c2cccc(OCc3ccc(F)s3)n2)cc1` ?
stdout: 7.91

stdin: Given `CS(=O)(=O)c1ccc(-c2cccc(NCc3cnco3)n2)cc1` , state its recorded pIC50.
stdout: 5.91

stdin: Reported pIC50 for `CS(=O)(=O)c1ccc(-c2cnc(C(F)(F)F)c(OCc3cccs3)n2)cc1` : what is it?
stdout: 6.82

stdin: Could you tell me which pIC50 is on file for `Cc1ncc(OCc2cccs2)nc1-c1ccc(S(C)(=O)=O)cc1` ?
stdout: 6.63

stdin: Would you kindly share the measured pIC50 for `CS(=O)(=O)c1ccc(-n2ccc3ccc(/C(=N/O)c4cccs4)nc32)cc1` ?
stdout: 6.01

stdin: Recorded pIC50 of `Cc1ccc(CNc2cccc(-c3ccc(S(C)(=O)=O)cc3)n2)o1` , please.
stdout: 7.21

stdin: Any idea what its pIC50 is? The molecule is `COc1ncc(NCc2cccs2)nc1-c1ccc(S(C)(=O)=O)nc1`
stdout: 7.48

stdin: Which pIC50 reading was recorded for the molecule `CS(=O)(=O)c1ccc(-c2cccc(OCc3cccs3)n2)cc1` ?
stdout: 8.44
